Values were extracted from ChEMBL document CHEMBL1130027.

- MEASURED ON: Human immunodeficiency virus type 1 protease (Human immunodeficiency virus 1, UniProt Q72874)
PROPERTY: Ki (nM)
All answers are understood in nM, so give the number only.

QUERY: Look up Ki for this compound: Nc1cccc(CN2C(=O)N(Cc3cccc(N)c3)[C@H](Cc3ccc4c(c3)OCCO4)[C@H](O)[C@@H](O)[C@H]2Cc2ccc3c(c2)OCCO3)c1
RESULT: 0.04

QUERY: Look up Ki for this compound: O=C1N(Cc2ccc(CO)cc2)[C@H](Cc2ccc3c(c2)OCCO3)[C@H](O)[C@@H](O)[C@@H](Cc2ccc3c(c2)OCCO3)N1Cc1ccc(CO)cc1
RESULT: 0.05

QUERY: Look up Ki for this compound: COc1cc(C[C@@H]2[C@H](O)[C@@H](O)[C@@H](Cc3cc(OC)cc(OC)c3)N(Cc3ccccc3)C(=O)N2Cc2ccccc2)cc(OC)c1
RESULT: 8

* * *

- ASSAY NOTES: The half life in dog
- Format: ADME, organism-based, Canis lupus familiaris
- CONDITION PARAMETERS: in vivo
PROPERTY: half-life
Please answer using the number first and the unit second.

QUERY: Look up half-life for this compound: CNc1cccc(CN2C(=O)N(Cc3cccc(NC)c3)[C@H](Cc3ccc4c(c3)OCCO4)[C@H](O)[C@@H](O)[C@H]2Cc2ccc3c(c2)OCCO3)c1
RESULT: 48 min

* * *

- ASSAY NOTES: In vivo evaluation of maximum plasma concentration at a dose of 10 mg/kg
- Type: ADME, organism-based
- Set-up: dose 10 mg/kg
PROPERTY: Cmax (ng/mL)
All answers are understood in ng/mL, so give the number only.

QUERY: Look up Cmax for this compound: CNc1cccc(CN2C(=O)N(Cc3cccc(NC)c3)[C@H](Cc3ccc4c(c3)OCCO4)[C@H](O)[C@@H](O)[C@H]2Cc2ccc3c(c2)OCCO3)c1
RESULT: 220
